target: BRM (Homo sapiens, UniProt P51531); assay: ATPase catalytic activity assay of BRM (ADP-Glo); assay type: biochemical; conditions: read-out: BRM IC50 (μM)*
Sequence (P51531 whole entry): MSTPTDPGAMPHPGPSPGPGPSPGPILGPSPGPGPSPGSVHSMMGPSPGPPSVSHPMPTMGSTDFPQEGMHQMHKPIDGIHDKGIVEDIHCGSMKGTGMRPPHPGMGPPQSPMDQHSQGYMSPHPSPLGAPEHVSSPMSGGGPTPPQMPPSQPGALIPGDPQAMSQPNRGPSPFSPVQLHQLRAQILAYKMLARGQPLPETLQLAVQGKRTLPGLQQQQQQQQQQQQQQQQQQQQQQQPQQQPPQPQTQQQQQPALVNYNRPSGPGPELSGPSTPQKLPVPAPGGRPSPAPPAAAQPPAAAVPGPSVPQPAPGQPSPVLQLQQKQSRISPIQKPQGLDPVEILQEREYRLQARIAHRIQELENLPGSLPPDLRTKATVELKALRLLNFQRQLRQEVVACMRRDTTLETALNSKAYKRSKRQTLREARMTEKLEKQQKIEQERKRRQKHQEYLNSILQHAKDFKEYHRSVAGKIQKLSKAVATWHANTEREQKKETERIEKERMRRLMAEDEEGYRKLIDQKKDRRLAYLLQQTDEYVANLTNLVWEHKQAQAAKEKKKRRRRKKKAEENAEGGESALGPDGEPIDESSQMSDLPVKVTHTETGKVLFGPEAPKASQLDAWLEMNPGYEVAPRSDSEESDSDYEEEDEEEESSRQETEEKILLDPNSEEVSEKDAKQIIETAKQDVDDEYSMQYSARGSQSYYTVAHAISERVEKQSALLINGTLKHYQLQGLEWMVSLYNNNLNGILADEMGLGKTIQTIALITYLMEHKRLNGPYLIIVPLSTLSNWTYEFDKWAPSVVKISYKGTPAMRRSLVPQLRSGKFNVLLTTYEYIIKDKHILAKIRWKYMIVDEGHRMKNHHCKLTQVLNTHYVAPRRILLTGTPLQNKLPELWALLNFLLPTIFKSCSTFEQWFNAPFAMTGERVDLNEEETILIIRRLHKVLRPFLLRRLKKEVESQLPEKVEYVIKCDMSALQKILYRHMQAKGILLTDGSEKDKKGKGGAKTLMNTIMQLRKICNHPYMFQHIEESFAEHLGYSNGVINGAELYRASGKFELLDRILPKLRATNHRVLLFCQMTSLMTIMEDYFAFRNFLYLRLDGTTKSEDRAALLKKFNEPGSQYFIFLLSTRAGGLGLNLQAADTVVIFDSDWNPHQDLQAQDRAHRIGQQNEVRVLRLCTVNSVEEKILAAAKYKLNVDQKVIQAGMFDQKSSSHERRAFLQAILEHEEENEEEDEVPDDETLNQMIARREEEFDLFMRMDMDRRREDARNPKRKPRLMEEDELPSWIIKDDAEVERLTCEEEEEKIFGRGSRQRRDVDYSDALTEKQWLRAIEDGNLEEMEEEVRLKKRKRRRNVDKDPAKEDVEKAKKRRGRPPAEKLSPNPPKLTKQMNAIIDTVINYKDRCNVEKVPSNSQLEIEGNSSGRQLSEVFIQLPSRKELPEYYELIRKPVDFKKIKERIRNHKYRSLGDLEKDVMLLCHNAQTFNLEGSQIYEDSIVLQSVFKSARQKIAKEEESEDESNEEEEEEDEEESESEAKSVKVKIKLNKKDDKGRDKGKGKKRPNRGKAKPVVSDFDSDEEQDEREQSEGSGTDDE
This section presents compounds with their documented IC50 values.

> print(dat)
                               smiles.entry  measured.property       result
1  Cn1ccc(-c2cccc(-c3csc(NC(=O)CNC(=O)c4ccc5c(c4)[C@@](C)(CO)CC5)n3)n2)n1               IC50  0.1 to 1 µM
2  Cn1ncc(-c2cccc(-c3csc(NC(=O)CNC(=O)c4cccc(C(C)(C)CO)c4)n3)c2)n1               IC50  0.1 to 1 µM
3  CC(C)(CO)c1cccc(C(=O)NCC(=O)Nc2nc(-c3cccc(N4CCC(O)CC4)c3)cs2)c1               IC50  0.1 to 1 µM

Request: I am curious: what IC50 value has been reported for Cc1cc(-c2cccc(-c3csc(NC(=O)CNC(=O)c4cc(C)c(C)c(C(C)(C)CN)c4)n3)c2)cc(C)n1 ?
Response: < 0.1 µM
